Hi! I'm sharing some pKi results obtained with Bcl-b (Homo sapiens, UniProt Q9HD36).
Sequence (Q9HD36 1-182 limits assumed): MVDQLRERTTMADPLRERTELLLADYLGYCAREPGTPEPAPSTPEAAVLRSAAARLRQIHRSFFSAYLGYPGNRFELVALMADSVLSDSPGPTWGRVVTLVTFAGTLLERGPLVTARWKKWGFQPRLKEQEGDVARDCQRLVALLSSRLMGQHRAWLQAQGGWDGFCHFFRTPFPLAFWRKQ
Hey, just a heads up that pKi is the negative log base 10 of the concentration in molar.

Known results for compounds:
> print(dat)
                                   compound  readoutnumber
1  O=S(=O)(NCc1cccc(CN(Cc2ccccc2SC(F)(F)F)S(=O)(=O)c2cc(Cl)cc(Cl)c2O)c1)c1cc(Cl)cc(Cl)c1O [Example 64]           7.13
2  CS(=O)(=O)c1cccc(CN(Cc2cc(CNC(=O)c3cccc(Oc4ccccc4)c3)cc(Oc3ccc(F)cc3)c2)S(=O)(=O)c2cc(Cl)cc(Cl)c2O)c1 [Example 77]           7.11
3  CC(C)NC(=O)c1cc(Cl)c(O)c(S(=O)(=O)N(Cc2ccc(F)cc2)Cc2cccc(-c3ccc(Cl)cc3)c2)c1 [Example 211]           6.80
4  CC(C)CN(Cc1ccc(CN(CC(C)C)S(=O)(=O)c2cc(Cl)cc(Cl)c2O)cc1)S(=O)(=O)c1cc(Cl)cc(Cl)c1O [Example 97]           7.15
5  CC(C)CN(Cc1cc(Cl)cc(CN(CC(C)C)S(=O)(=O)c2cc(Cl)cc(Cl)c2O)c1)C(=O)c1cccc(S(=O)(=O)C(F)(F)F)c1 [Example 73]           6.84
6  CCCCc1ccc(-c2cccc(CN(Cc3ccc(F)cc3)S(=O)(=O)c3cc(Cl)cc(Cl)c3O)c2)cc1 [Example 256]           6.85

Kindly review the next compound as well.
Exercise: Find the measured pKi: item O=S(=O)(NCc1ccc(CN(Cc2ccc(F)cc2)S(=O)(=O)c2cc(Cl)cc(Cl)c2O)cc1)c1cc(Cl)cc(Cl)c1 [Example 98] , target or system Bcl-b (Homo sapiens, UniProt Q9HD36).
Key: 6.80

---

subjectOfTest: UniProt:P10415
Sequence (P10415 1-211 limits assumed): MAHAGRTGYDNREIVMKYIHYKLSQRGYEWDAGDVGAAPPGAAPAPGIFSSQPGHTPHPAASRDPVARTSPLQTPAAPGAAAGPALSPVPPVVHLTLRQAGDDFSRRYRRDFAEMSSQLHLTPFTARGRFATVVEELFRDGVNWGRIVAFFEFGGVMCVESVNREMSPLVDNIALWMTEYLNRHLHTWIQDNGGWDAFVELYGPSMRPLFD
metricName: Ki (nM)
Unit nM implied. Number only.

> print(dat)
                          compoundstructure  readoutnumber
1  COc1c(CN(Cc2ccc(F)cc2)S(=O)(=O)c2cc(Cl)cc(Cl)c2O)cccc1-c1ccc(Cl)cc1            120
2  O=S(=O)(c1cc(Cl)cc(Cl)c1)N(CCO)Cc1ccc(CN(Cc2ccc(F)cc2)S(=O)(=O)c2cc(Cl)cc(Cl)c2O)cc1            440
3  O=C(c1cccc(CN(Cc2ccc(F)cc2)S(=O)(=O)c2cc(Cl)cc(Cl)c2O)c1)N(Cc1ccc(F)cc1)Cc1cc(Cl)cc(Cl)c1            120

Please turn your attention to the following entry.
Exercise: Form field: Ki recorded for O=C(NCc1cccc(CN(Cc2ccc(F)cc2)S(=O)(=O)c2cc(Cl)cc(Cl)c2O)c1)c1cc(O)nc(O)c1 with UniProt:P10415 (enter value)
Key: 20
